Test system: PC-3 prostate
Test: NCI tumour cell line growth inhibition, 48 h
Recorded GI50 for the following compounds

| Compound | GI50 |
| --- | --- |
| COc1cc(-c2ccc(NC(=O)NC3CC3)c(OC)c2)ccc1NC(=O)NC1CC1 | 9.01 µM |
| O=S(=O)(Nc1ccc2ccccc2c1)c1ccc(-c2cnc(C3CC3)o2)cc1 | 1.69 µM |
| CCCN1C(=O)/C(=C/c2ccc(O)cc2)SC1=Nc1ccc(OC)cc1 | 14 µM |
| CC(C)CCC(=O)[C@@H](C)[C@H]1[C@@H](OC2OCC(O)C(O)C2NS(C)(=O)=O)C[C@H]2[C@@H]3CC=C4C[C@@H](O)CC[C@]4(C)[C@H]3CC[C@]12C (some centres not stated) | 0.982 µM |
| CCOc1c(C#N)c2c(N)ncnc2n1C1OC(CO)C(O)C1O (configuration not stated) | 2.77 µM |
| Cc1cn2c(/C=C3/C(=O)Nc4ccc(F)cc43)c(C)nc2s1 | 9.51 µM |
| COc1ccc(CNc2cnc3cc(N)cc(N)c3n2)cc1 | 34.2 µM |
